Every entry's value here was drawn from ChEMBL document CHEMBL1250479.

- Test System: Somatostatin receptor type 2 (Homo sapiens, UniProt P30874)
- Sequence (P30874 whole entry): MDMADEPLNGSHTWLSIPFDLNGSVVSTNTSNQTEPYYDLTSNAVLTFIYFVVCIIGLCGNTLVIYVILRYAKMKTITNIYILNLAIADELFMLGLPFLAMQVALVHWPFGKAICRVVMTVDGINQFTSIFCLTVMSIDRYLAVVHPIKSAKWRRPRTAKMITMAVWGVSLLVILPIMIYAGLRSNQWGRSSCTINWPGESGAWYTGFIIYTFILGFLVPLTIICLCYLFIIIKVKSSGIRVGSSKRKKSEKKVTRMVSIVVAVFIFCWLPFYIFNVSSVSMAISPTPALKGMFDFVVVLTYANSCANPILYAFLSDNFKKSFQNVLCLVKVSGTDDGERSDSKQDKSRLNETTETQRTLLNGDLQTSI
- Measurement Notes: Displacement of [125I]iodotyrosyl from human SST2 receptor expressed in CHO cells

{"Structure Smiles": "COC[C@H]1O[C@@H](OCc2ccc3ccccc3c2)[C@H](NC(=O)CCN)[C@@H](OCc2ccc3ccccc3c2)[C@@H]1O", "Unit Abbrev": "µM", "Relation Operator": "=", "IC50": 0.65}
{"Structure Smiles": "CS[C@@H]1O[C@H](COCc2ccc(Cl)cc2)[C@@H](O)[C@@H](OCc2ccc3ccccc3c2)[C@H]1NC(=O)CCN", "Unit Abbrev": "µM", "Relation Operator": "=", "IC50": 0.98}
{"Structure Smiles": "COC[C@H]1O[C@H](OCCc2ccccc2)[C@H](NC(=O)CCCN)[C@H](OCc2ccc3ccccc3c2)[C@@H]1O", "Unit Abbrev": "µM", "Relation Operator": "=", "IC50": 6.1}
{"Structure Smiles": "COC[C@H]1O[C@@H](OCc2ccc3ccccc3c2)[C@H](NC(=O)CCCN)[C@@H](OCc2ccc(Cl)cc2)[C@@H]1O", "Unit Abbrev": "µM", "Relation Operator": ">", "IC50": 10}
{"Structure Smiles": "COC[C@H]1O[C@@H](OCCc2ccccc2)[C@H](NC(=O)CCCN)[C@@H](OCc2ccc3ccccc3c2)[C@@H]1O", "Unit Abbrev": "µM", "Relation Operator": "=", "IC50": 3.32}
{"Structure Smiles": "COC[C@H]1O[C@H](OCc2ccc3ccccc3c2)[C@H](NC(=O)CCCN)[C@H](OCc2ccc(Cl)cc2)[C@@H]1O", "Unit Abbrev": "µM", "Relation Operator": ">", "IC50": 10}

----------
Property: pIC50; scope: individual compounds
- Test System: Melanin-concentrating hormone receptor 1 (Homo sapiens)
- Measurement Notes: Displacement of [I125I]MCH from human MCH1 receptor expressed in CHO cells by scintillation counting
- Type: cell-based
pIC50: −log10 of the molar value.

{"Structure Smiles": "COC[C@H]1O[C@H](OCc2ccc(Cl)cc2)[C@H](NC(=O)CCCN=C(N)N)[C@@H](OCc2ccc3ccccc3c2)[C@@H]1O", "pIC50": 6.35}
{"Structure Smiles": "COC[C@H]1O[C@H](OCc2ccc3ccccc3c2)[C@H](NC(=O)CCCN=C(N)N)[C@@H](OCc2ccc3ccccc3c2)[C@@H]1O", "pIC50": 5.94}
{"Structure Smiles": "COC[C@H]1O[C@@H](OCc2ccc(Cl)cc2)[C@H](NC(=O)CCCN=C(N)N)[C@@H](OCc2ccc(Cl)cc2)[C@@H]1O", "pIC50": 5.78}
{"Structure Smiles": "COC[C@H]1O[C@H](OCCc2ccccc2)[C@H](NC(=O)CCCN=C(N)N)[C@@H](OCc2ccc(Cl)cc2)[C@@H]1O", "pIC50": 6.27}
{"Structure Smiles": "COC[C@H]1O[C@H](OCc2ccc(Cl)cc2)[C@H](NC(=O)CCCN=C(N)N)[C@@H](OCc2ccc(Cl)cc2)[C@@H]1O", "pIC50": 6.92}
{"Structure Smiles": "COC[C@H]1O[C@@H](OCc2ccc3ccccc3c2)[C@H](NC(=O)CCCN=C(N)N)[C@@H](OCc2ccc(Cl)cc2)[C@@H]1O", "pIC50": 5.76}
{"Structure Smiles": "COC[C@H]1O[C@H](OCc2ccc3ccccc3c2)[C@H](NC(=O)CCCN=C(N)N)[C@@H](OCc2ccc(Cl)cc2)[C@@H]1O", "pIC50": 6.04}

----------
- Test System: Somatostatin receptor type 4 (Homo sapiens)
- Sequence (P31391 whole entry): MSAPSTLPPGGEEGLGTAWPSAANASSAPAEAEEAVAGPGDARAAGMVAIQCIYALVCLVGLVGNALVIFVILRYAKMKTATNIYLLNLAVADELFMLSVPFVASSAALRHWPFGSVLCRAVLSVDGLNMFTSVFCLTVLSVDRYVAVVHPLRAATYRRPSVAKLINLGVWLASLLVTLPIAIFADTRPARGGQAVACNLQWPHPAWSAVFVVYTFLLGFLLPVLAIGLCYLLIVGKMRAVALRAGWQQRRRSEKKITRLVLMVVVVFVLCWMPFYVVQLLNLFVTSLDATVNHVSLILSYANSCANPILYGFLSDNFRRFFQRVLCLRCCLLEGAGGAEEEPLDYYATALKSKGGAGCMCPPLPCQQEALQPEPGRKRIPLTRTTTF
- Measurement Notes: Displacement of [125I]iodotyrosyl from human SST4 receptor expressed in CHO cells
Label Satisfied when IC50 < 700 nM; otherwise Not satisfied.

{"Structure Smiles": "CS[C@@H]1O[C@H](COCc2ccccc2)[C@@H](O)[C@@H](OCc2ccc3ccccc3c2)[C@H]1NC(=O)CCN", "Test System": "Somatostatin receptor type 4 (Homo sapiens)", "Group Label": "Satisfied"}
{"Structure Smiles": "CS[C@@H]1O[C@H](COCc2ccccc2)[C@@H](O)[C@@H](OCc2ccc3ccccc3c2)[C@H]1NC(=O)CCN=C(N)N", "Test System": "Somatostatin receptor type 4 (Homo sapiens)", "Group Label": "Satisfied"}
{"Structure Smiles": "COC[C@H]1O[C@@H](OCc2ccc3ccccc3c2)[C@H](NC(=O)CCN)[C@@H](OCc2ccc3ccccc3c2)[C@@H]1O", "Test System": "Somatostatin receptor type 4 (Homo sapiens)", "Group Label": "Not satisfied"}
{"Structure Smiles": "CS[C@@H]1O[C@H](COCc2ccc3ccccc3c2)[C@@H](O)[C@@H](OCc2ccc3ccccc3c2)[C@H]1NC(=O)CCN", "Test System": "Somatostatin receptor type 4 (Homo sapiens)", "Group Label": "Satisfied"}
{"Structure Smiles": "COC[C@H]1O[C@@H](OCCc2ccccc2)[C@H](NC(=O)CCCN)[C@@H](OCc2ccc3ccccc3c2)[C@@H]1O", "Test System": "Somatostatin receptor type 4 (Homo sapiens)", "Group Label": "Not satisfied"}
{"Structure Smiles": "COC[C@H]1O[C@H](OCc2ccc3ccccc3c2)[C@H](NC(=O)CCCN)[C@H](OCc2ccc(Cl)cc2)[C@@H]1O", "Test System": "Somatostatin receptor type 4 (Homo sapiens)", "Group Label": "Not satisfied"}

----------
- Test System: Somatostatin receptor type 5 (Homo sapiens)
- Sequence (P35346 whole entry): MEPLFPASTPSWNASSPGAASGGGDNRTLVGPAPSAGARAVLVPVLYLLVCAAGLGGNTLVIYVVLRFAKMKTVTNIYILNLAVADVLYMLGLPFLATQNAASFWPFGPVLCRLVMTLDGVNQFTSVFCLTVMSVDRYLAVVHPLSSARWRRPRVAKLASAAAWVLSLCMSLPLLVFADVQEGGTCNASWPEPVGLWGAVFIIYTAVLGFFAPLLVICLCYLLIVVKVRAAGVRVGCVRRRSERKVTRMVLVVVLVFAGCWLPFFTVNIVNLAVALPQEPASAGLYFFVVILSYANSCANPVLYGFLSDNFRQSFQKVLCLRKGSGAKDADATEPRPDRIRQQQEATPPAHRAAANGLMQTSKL
- Measurement Notes: Displacement of [125I]iodotyrosyl from human SST5 receptor expressed in CHO cells
Label key: met means IC50 under 70 nM; not met means IC50 of 70 nM or more.

{"Molecule": "COC[C@H]1O[C@@H](OCc2ccc3ccccc3c2)[C@H](NC(=O)CCN)[C@@H](OCc2ccc3ccccc3c2)[C@@H]1O", "Group Label": "met"}
{"Molecule": "CS[C@@H]1O[C@H](COCc2ccc(Cl)cc2)[C@@H](O)[C@@H](OCc2ccc3ccccc3c2)[C@H]1NC(=O)CCN", "Group Label": "not met"}
{"Molecule": "COC[C@H]1OC(OCCc2ccccc2)[C@H](NC(=O)CCN)C(OCc2ccc3ccccc3c2)[C@@H]1O (some centres not stated)", "Group Label": "not met"}
{"Molecule": "COC[C@H]1O[C@@H](OCc2ccc3ccccc3c2)[C@H](NC(=O)CCCN)[C@@H](OCc2ccc(Cl)cc2)[C@@H]1O", "Group Label": "met"}
{"Molecule": "COC[C@H]1O[C@H](OCCc2ccccc2)[C@H](NC(=O)CCCN)[C@H](OCc2ccc3ccccc3c2)[C@@H]1O", "Group Label": "not met"}
{"Molecule": "COC[C@H]1O[C@@H](OCCc2ccccc2)[C@H](NC(=O)CCCN)[C@@H](OCc2ccc3ccccc3c2)[C@@H]1O", "Group Label": "not met"}

----------
Reported pKi values for a set of compounds
- Test System: Melanin-concentrating hormone receptor 1 (Homo sapiens, UniProt Q99705)
- Sequence (Q99705 whole entry): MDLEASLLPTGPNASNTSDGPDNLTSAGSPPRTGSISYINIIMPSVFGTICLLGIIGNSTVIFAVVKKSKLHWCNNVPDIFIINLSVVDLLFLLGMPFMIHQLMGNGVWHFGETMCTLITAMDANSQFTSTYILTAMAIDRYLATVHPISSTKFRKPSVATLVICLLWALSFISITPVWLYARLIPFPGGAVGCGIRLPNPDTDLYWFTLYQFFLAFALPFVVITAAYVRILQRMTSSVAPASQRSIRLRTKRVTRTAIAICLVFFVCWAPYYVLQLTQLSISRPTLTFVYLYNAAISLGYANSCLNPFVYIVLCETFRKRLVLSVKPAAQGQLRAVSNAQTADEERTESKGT
- Measurement Notes: Displacement of [I125I]MCH from human MCH1 receptor expressed in CHO cells by scintillation counting
pKi: −log10 of the molar value.
Measure: pKi

{"Compound": "COC[C@H]1OC(OCc2ccc(Cl)cc2)[C@H](NC(=O)CCCN=C(N)N)[C@@H](OCc2ccc3ccccc3c2)[C@@H]1O (some centres not stated)", "Endpoint Value": 5.59}
{"Compound": "COC[C@H]1OC(OCc2ccc3ccccc3c2)[C@H](NC(=O)CN=C(N)N)[C@@H](OCc2ccc(Cl)cc2)[C@@H]1O (some centres not stated)", "Endpoint Value": 5.18}
{"Compound": "COC[C@H]1OC(OCc2ccc(Cl)cc2)[C@H](NC(=O)CCCN=C(N)N)[C@@H](OCc2ccc(Cl)cc2)[C@@H]1O (some centres not stated)", "Endpoint Value": 5.92}
{"Compound": "COC[C@H]1OC(OCc2ccc3ccccc3c2)[C@H](NC(=O)CCN=C(N)N)[C@@H](OCc2ccc3ccccc3c2)[C@@H]1O (some centres not stated)", "Endpoint Value": 5.20}
{"Compound": "COC[C@H]1OC(OCCc2ccccc2)[C@H](NC(=O)CCCN=C(N)N)[C@@H](OCc2ccc(Cl)cc2)[C@@H]1O (some centres not stated)", "Endpoint Value": 5.46}
{"Compound": "COC[C@H]1OC(OCc2ccc3ccccc3c2)[C@H](NC(=O)CCCN=C(N)N)[C@@H](OCc2ccc3ccccc3c2)[C@@H]1O (some centres not stated)", "Endpoint Value": 5.29}
{"Compound": "COC[C@H]1OC(OCc2ccc3ccccc3c2)[C@H](NC(=O)CCCN=C(N)N)[C@@H](OCc2ccc(Cl)cc2)[C@@H]1O (some centres not stated)", "Endpoint Value": 5.74}

----------
- Test System: Somatostatin receptor type 1 (Homo sapiens)
- Sequence (P30872 whole entry): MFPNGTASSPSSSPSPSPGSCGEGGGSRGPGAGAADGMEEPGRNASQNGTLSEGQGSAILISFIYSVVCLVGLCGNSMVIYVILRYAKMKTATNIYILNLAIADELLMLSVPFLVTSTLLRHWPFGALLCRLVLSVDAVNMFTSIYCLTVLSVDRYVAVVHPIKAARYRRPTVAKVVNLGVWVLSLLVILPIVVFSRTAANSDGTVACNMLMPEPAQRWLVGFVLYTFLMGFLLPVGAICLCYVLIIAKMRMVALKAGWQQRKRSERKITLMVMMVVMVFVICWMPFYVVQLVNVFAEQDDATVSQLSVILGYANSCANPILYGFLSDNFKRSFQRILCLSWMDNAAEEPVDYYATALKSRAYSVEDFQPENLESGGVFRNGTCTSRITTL
- Measurement Notes: Displacement of [125I]iodotyrosyl from human SST1 receptor expressed in CHO cells

{"Structure Smiles": "COC[C@H]1O[C@@H](OCc2ccc3ccccc3c2)[C@H](NC(=O)CCN)[C@@H](OCc2ccc3ccccc3c2)[C@@H]1O", "IC50": "2.8 µM"}
{"Structure Smiles": "COC[C@H]1O[C@H](OCCc2ccccc2)[C@H](NC(=O)CCCN)[C@H](OCc2ccc3ccccc3c2)[C@@H]1O", "IC50": "> 10 µM"}
{"Structure Smiles": "COC[C@H]1O[C@@H](OCc2ccc3ccccc3c2)[C@H](NC(=O)CCCN)[C@@H](OCc2ccc(Cl)cc2)[C@@H]1O", "IC50": "> 10 µM"}
{"Structure Smiles": "COC[C@H]1O[C@@H](OCCc2ccccc2)[C@H](NC(=O)CCCN)[C@@H](OCc2ccc3ccccc3c2)[C@@H]1O", "IC50": "> 10 µM"}
{"Structure Smiles": "COC[C@H]1O[C@H](OCc2ccc3ccccc3c2)[C@H](NC(=O)CCCN)[C@H](OCc2ccc(Cl)cc2)[C@@H]1O", "IC50": "> 10 µM"}
{"Structure Smiles": "CS[C@@H]1O[C@H](COCc2ccc(Cl)cc2)[C@@H](O)[C@@H](OCc2ccc3ccccc3c2)[C@H]1NC(=O)CCN", "IC50": "9.59 µM"}
